Values compiled from paper PMC8198049.

S. aureus (ATCC 25923): reported MIC for various molecules.
One number for each entry, in µM.

[
  {
    "Molecule": "Cn1cc2c3ccccc3nc-2c2ccccc21 [Isocryptolepine (3a), isocryptolepine]",
    "Unit info": "µM",
    "MIC": 100
  },
  {
    "Molecule": "COc1cnc2cccc3c2c1Nc1ccccc1-3 [Compound 4b]",
    "Unit info": "µM",
    "MIC": 75
  },
  {
    "Molecule": "CN1C=Cc2nc3ccccc3c3cccc1c23 [Compound 8a]",
    "Unit info": "µM",
    "MIC": 75
  }
]

Now, please, on to the next molecule.
Requested field: MIC. Item: c1ccc2c(c1)Nc1ccnc3cccc-2c13 [Compound 4a, 7H-pyrido[4,3,2-gh]phenanthridine]
100

###

Tested on: HCT116, MDA-MB-231 and PC-3
Assay: Antiproliferative assay, whole panel of cancer cell lines
Format: cell-based, human
Observation type: activity against the panel of cancer cell lines

[
  {
    "Molecule": "C[n+]1cccc2c3c(ccc21)[nH]c1ccccc13 [Compound 10]",
    "Result": "no activity"
  },
  {
    "Molecule": "C[n+]1cccc2c3[nH]c4ccccc4c3ccc21 [Compound 21]",
    "Result": "no activity"
  }
]

###

Record form. Attribute: melting point. Fill in for each entry.
Where a name gives a salt, the structure may show the parent alone.

[
  {
    "Compound": "c1ccc2c(c1)[nH]c1ccc3ncccc3c12 [Compound 9a, 7H-Pyrido[2,3-c]carbazole]",
    "melting point": "204 to 205 °C"
  },
  {
    "Compound": "c1cnc2c(c1)ccc1c3ccccc3[nH]c12 [Compound 18, 11H-Pyrido[2,3-a]carbazole]",
    "melting point": "164 °C"
  }
]

I need melting point for every entry listed below, if you could help.
1. CN1C=Cc2nc3ccccc3c3cccc1c23
2. C[n+]1cccc2c3[nH]c4ccccc4c3ccc21 (as salt: hydroiodid)

1. 182 to 183 °C
2. 279 to 280 °C

###

Assay: Antiplasmodial imaging assay
Format: cell-based, Plasmodium falciparum
Conditions: human (HEK293) and Plasmodium falciparum (3D7)
Observation type: selectivity ratio at 72 h
One number for each entry.

Requested field: selectivity ratio at 72 h. Item: COc1ccc(C[C@H](N)C(=O)N[C@H]2[C@@H](O)[C@H](n3cnc4c(N(C)C)ncnc43)O[C@@H]2CO)cc1 [Puromycin, puromycin, reference compound]
0.03

###

Record form. Attribute: selectivity ratio at 72 h. Fill in for each entry.
Assay: Antiplasmodial imaging assay
Format: cell-based, Plasmodium falciparum
Details: human (HEK293) and Plasmodium falciparum (3D7), HEK293 cells versus Plasmodium falciparum 3D7 culture; HEK293 vs 3D7; read-out: SI (selectivity index = cytotoxicity in HEK293/activity in 3D7)
Experimental: Compounds tested in the antiproliferative assays were tested in 11 dilution points (0.02 µM–40 µM or 0.04 µM–80 µM). Antiplasmodial activity was determined as previously described by Duffy and Avery. […] After incubation, plates were stained with 4’,6-diamidino-2-phenylindole (DAPI) in a permeabilization buffer for 5 h at rt in the dark. Plates were imaged on the Opera confocal microplate image reader (PerkinElmer).
One number for each entry.

Example molecules with recorded selectivity ratio at 72 h:
[
  {
    "Molecule": "c1ccc2c(c1)Nc1ccnc3cccc-2c13 [Compound 4a, 7H-pyrido[4,3,2-gh]phenanthridine]",
    "Measured number": 5.2
  },
  {
    "Molecule": "COC1=CN(C)c2cccc3c2c1nc1ccccc13",
    "Measured number": 3.3
  },
  {
    "Molecule": "COc1cnc2cccc3c2c1Nc1ccccc1-3",
    "Measured number": 4.2
  },
  {
    "Molecule": "C=CCn1cc2c3ccccc3nc-2c2ccccc21 [Compound 3c, 5-Allyl-5H-indolo[3,2-c]quinoline]",
    "Measured number": 2.6
  },
  {
    "Molecule": "CN1C=Cc2nc3ccccc3c3cccc1c23",
    "Measured number": 4.4
  },
  {
    "Molecule": "Cn1cc2c3ccccc3nc-2c2ccccc21 [Isocryptolepine (3a), isocryptolepine]",
    "Measured number": 1.7
  }
]

I need selectivity ratio at 72 h for every entry listed below, if you could help.
1. c1ccc2c(c1)ncc1c3ccccc3[nH]c21 [Compound 14, 11H-indolo[3,2-c]quinoline]
2. C[n+]1cccc2c3c(ccc21)[nH]c1ccccc13
3. C[C@H]1[C@@H](O)O[C@@H]2O[C@@]3(C)CC[C@H]4[C@H](C)CC[C@@H]1[C@@]24OO3 [DHA, dihydroartemisinin, reference compound]

1: 18.9; 2: 214; 3: 74

Requested field: selectivity ratio at 72 h. Item: CCn1cc2c3ccccc3nc-2c2ccccc21 [Compound 3b, 5-Ethyl-5H-indolo[3,2-c]quinoline]
2.3

###

Structures can show the parent of a compound that is named as a salt.
Record form. Attribute: melting point. Fill in for each entry.

Example molecules with recorded melting point:
[
  {
    "Molecule": "C[n+]1cccc2c3c(ccc21)[nH]c1ccccc13 (as salt: hydroiodid)",
    "Result": "284 to 286 °C"
  },
  {
    "Molecule": "Fc1ccc2[nH]c3ccc4ncccc4c3c2c1 [Compound 9b, 10-Fluoro-7H-pyrido[2,3-c]carbazole]",
    "Result": "256 to 257 °C"
  }
]

Requested field: melting point. Item: CCn1cc2c3ccccc3nc-2c2ccccc21 [Compound 3b, 5-Ethyl-5H-indolo[3,2-c]quinoline]
198 °C

###

Test: Cytotoxicity assay (resazurin-based viability)
Type: cell-based
Conditions: human, HEK293 cells, mean ± standard deviation, two separate experiments
Record form. Attribute: IC50 at 72 h. Fill in for each entry.

[
  {
    "Compound": "Cn1c2nc3ccccc3c-2cc2ccccc21 [Neocryptolepine (2), Neocryptolepine]",
    "IC50 at 72 h": "> 20 µM"
  },
  {
    "Compound": "c1ccc2c(c1)[nH]c1ccc3ncccc3c12 [Compound 9a, 7H-Pyrido[2,3-c]carbazole]",
    "IC50 at 72 h": "> 80 µM"
  }
]

Now, please, on to the next compound.
Requested field: IC50 at 72 h. Item: CCN(CC)CCCC(C)Nc1ccnc2cc(Cl)ccc12 (stereo not drawn) [Chloroquine, chloroquine, reference compound]
> 4 µM
